I'd appreciate it if you could supply phage ELISA signal ratio values for the items below.
- Target Entity: T1, CD2BP2 256-341 GYF (domain begin residue: 256, domain end residue: 341), O95400
- T1 chain: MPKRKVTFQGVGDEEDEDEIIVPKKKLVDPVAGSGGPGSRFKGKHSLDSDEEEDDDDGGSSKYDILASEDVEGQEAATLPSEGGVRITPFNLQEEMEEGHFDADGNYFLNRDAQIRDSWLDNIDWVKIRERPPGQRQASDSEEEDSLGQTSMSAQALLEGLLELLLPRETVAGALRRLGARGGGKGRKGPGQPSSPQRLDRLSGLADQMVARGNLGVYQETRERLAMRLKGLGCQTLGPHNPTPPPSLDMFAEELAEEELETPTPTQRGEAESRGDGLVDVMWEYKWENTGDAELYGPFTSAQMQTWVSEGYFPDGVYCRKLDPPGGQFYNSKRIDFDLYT
- Run Description: phage ELISA signal ratio (GST-PRM binding over GST background); higher = stronger binding of peptide-phage to the PRM

Any idea what phage ELISA signal ratio was measured for QEFMSISYPPGMPQDP ?
14.4

Then what about the binder TAPPGYGARYMETPYV ?
16.9

Let us now turn to EDPTLKVGHPPGWSFK
17.6

Query WQATDYPQQPPPGWKE next
18.9

Subsequent entry: GHPPGWSEFGWEHLVI
16.2

// same read-out, input: YPYPPGWDSNYAQRVE
19.2

Where do the numbers come from? From the supplement of paper PMC7724964.
